Tested on: MDA-N
measurement protocol: NCI tumour cell line growth inhibition, 48 h
Calls of active or inactive are those of the source. No stated cut-off is given here; in the data, active = GI50 up to about 1.1 µM and inactive = higher.
Some molecules, each annotated with its measured GI50.

Problem: Given the entry CCCCCCCCOP(=O)(O)OP(=O)(O)OCC1OC(n2ccc(N)nc2=O)C(O)C1O (configuration not stated) , what GI50 was observed with MDA-N?
Solution: > 100 µM (inactive)

Problem: Given the entry COc1cc2c(cc1OC)-c1cc3cc(OC)c(OC)cc3c(C)[n+]1CC2.O=C([O-])CS(=O)(=O)O , what GI50 was observed with MDA-N?
Solution: 89.3 µM (inactive)

Problem: Given the entry COc1ccc(/C=C2\CC3C4CC=C5C[C@@H](N6CCCC6)CC[C@]5(C)C4CC[C@]3(C)[C@H]2O)cc1OC (some centres not stated) , what GI50 was observed with MDA-N?
Solution: 7.55 µM (inactive)

Problem: Given the entry O=c1ccn(C2OC(CN(O)CCC3C(O)C(CO)OC3n3ccc(=O)[nH]c3=O)C(O)C2O)c(=O)[nH]1 (configuration not stated) , what GI50 was observed with MDA-N?
Solution: > 100 µM (inactive)

Problem: Given the entry O=c1[nH]c(=O)n(C2CC(O)C(CS)O2)cc1F (configuration not stated) , what GI50 was observed with MDA-N?
Solution: 86.9 µM (inactive)

Problem: Given the entry COc1cc(/N=N/c2cccc(S(N)(=O)=O)c2)c2ccccc2c1N , what GI50 was observed with MDA-N?
Solution: 2.41 µM (inactive)

Problem: Given the entry O=C1Nc2ccccc2NC1C1OC(c2ccccc2)=CC1=O (configuration not stated) , what GI50 was observed with MDA-N?
Solution: > 100 µM (inactive)

* * *

System: OVCAR-8
measurement protocol: NCI tumour cell line growth inhibition, 48 h
Active and inactive are the calls of the source. Rule as the data show it: active = GI50 up to about 1.1 µM and inactive = higher.
Reply using exactly one outcome from y (active), n (inactive)

Sample answers from the record:
>>> qualitative_label("O=C(NCCCNCCCNC(=O)c1cc(-c2ccccc2)nc2ccccc12)c1cc(-c2ccccc2)nc2ccccc12")
"n"
>>> qualitative_label("COc1cc(OC)c(/C=C/c2cnc3ccccc3n2)c(OC)c1")
"n"
>>> qualitative_label("CCCCCCCCC1=CCC(CN(C)C)C1=O (stereo not given)")
"n"

Problem: For this compound, state the assay outcome: CCOC(=O)c1cc2c(nc1N)-c1ncccc1CC2
Solution: n

Problem: For this compound, state the assay outcome: Cc1coc2c1[C@@H](O)[C@@]1(C)[C@H](CCC[C@@H]1C)C2
Solution: n

Problem: For this compound, state the assay outcome: CCOc1nc(OCC)nc(-c2cccn2-c2ccccc2)n1
Solution: n

Problem: For this compound, state the assay outcome: Nc1n[n+]([O-])c2ccc(Cl)cc2[n+]1[O-]
Solution: n

Problem: For this compound, state the assay outcome: CN1CCCNCCN(CCc2ccccn2)CCCN(C)CC1
Solution: n

Problem: For this compound, state the assay outcome: Oc1ccc(Cl)cc1C1=Nn2c(COc3ccc4c(c3)CCCC4)nnc2SC1
Solution: n

Problem: For this compound, state the assay outcome: O=C(c1ccccc1)c1c(C(F)(F)F)[n+]([O-])c2cc(F)c(F)cc2[n+]1[O-]
Solution: y

Problem: For this compound, state the assay outcome: CN1CCc2c1nc(-c1ccccc1)c1c2N(C)CC1
Solution: n

Problem: For this compound, state the assay outcome: Oc1ccc(Cn2c(-c3ccc(O)cc3)nc3ccccc32)cc1
Solution: n

Problem: For this compound, state the assay outcome: Cc1ccccc1-n1c(=O)nc2n(-c3ccc(C(C)(C)C)cc3)c3ccccc3cc-2c1=O
Solution: n

Problem: For this compound, state the assay outcome: COc1cc2c(cc1OC)-c1cc3cc(OC)c(OC)cc3c(C)[n+]1CC2.O=C([O-])CS(=O)(=O)O
Solution: n

Problem: For this compound, state the assay outcome: CCOC(=O)C1C(=O)CC(=O)C2CCCCC21 (stereo not given)
Solution: n

Problem: For this compound, state the assay outcome: c1cc2sc1CSCCSCCSC2
Solution: n

Problem: For this compound, state the assay outcome: Cc1ccccc1C(=O)C#Cc1cn(C2CC(O)C(CO)O2)c(=O)[nH]c1=O (stereo not given)
Solution: n

Problem: For this compound, state the assay outcome: CC12CC3CC(C)(C1)CC(N=[N+]=[N-])(C3)C2
Solution: n

Problem: For this compound, state the assay outcome: CC(C)=CCc1c(O)ccc2ccc(=O)oc12
Solution: n

Problem: For this compound, state the assay outcome: Cc1cc2ccccc2n1CC(=O)NCC(C)C
Solution: n
